Recorded measurements of IC50, one per entry
molecular target: Tyrosine-protein kinase JAK2 (Homo sapiens)
Sequence (O60674 whole entry): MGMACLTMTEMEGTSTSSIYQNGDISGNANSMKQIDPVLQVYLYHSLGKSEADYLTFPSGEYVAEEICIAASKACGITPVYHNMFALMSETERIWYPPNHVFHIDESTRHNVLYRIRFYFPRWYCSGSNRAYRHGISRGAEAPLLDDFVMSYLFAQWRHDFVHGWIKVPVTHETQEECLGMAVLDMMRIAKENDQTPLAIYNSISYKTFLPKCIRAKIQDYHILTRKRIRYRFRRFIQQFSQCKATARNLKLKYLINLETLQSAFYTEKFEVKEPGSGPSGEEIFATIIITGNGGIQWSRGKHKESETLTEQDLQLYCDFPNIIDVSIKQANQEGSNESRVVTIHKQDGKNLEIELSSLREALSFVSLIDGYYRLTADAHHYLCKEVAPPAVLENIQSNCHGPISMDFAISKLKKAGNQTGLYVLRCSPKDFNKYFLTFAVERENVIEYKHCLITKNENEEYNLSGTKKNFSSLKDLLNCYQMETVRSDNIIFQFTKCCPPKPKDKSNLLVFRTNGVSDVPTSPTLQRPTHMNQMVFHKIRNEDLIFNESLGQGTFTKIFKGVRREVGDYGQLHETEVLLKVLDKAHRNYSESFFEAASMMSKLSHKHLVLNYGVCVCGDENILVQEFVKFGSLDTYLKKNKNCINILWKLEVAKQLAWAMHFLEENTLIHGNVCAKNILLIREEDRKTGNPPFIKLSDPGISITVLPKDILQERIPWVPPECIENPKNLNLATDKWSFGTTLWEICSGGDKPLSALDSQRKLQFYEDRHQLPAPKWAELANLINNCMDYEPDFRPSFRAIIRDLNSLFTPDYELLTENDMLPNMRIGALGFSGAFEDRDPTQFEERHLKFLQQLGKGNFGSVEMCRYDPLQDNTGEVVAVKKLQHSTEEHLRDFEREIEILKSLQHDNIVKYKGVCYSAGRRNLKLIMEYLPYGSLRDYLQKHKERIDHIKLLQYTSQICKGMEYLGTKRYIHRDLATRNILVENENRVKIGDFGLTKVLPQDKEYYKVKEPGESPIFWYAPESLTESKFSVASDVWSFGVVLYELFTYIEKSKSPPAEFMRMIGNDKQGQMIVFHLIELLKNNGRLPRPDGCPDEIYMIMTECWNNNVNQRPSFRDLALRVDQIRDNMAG

Recorded IC50, per entry:
Molecule | IC50
O=C(O)C1CC12CCC(c1ccc(Nc3nc(N4CCCCC4)nc4cn[nH]c(=O)c34)cc1)CC2 (stereo not given) | < 50 nM
N#CCC1CCN(c2nc(Nc3ccc(N4CCC(F)(F)CC4)cc3)c3c(=O)[nH]ncc3n2)CC1 | < 10 nM
O=C(O)CN1CCN(c2ccc(Nc3nc(N4CCCCCC4)nc4cn[nH]c(=O)c34)cc2)CC1 | < 10 nM
O=c1[nH]ncc2nc(N3CCCCCC3)nc(Nc3ccc(OCCN4CCCNCC4)cc3)c12 | < 10 nM

Please turn your attention to the following entry.
Fill in: Tyrosine-protein kinase JAK2 (Homo sapiens) IC50 for CC(C)(CO)Oc1ccc(Nc2nc(N3CCC(CC#N)CC3)nc3cn[nH]c(=O)c23)cc1 = < 50 nM
